Tested on: KM12
Measurement description: NCI tumour cell line growth inhibition, 48 h
The source made the active and inactive calls. No stated cut-off is given here; in the data, active = GI50 up to about 1.1 µM and inactive = higher.
Classes used: active, inactive

>  <Compound>
CC(=O)N[C@@H](Cc1ccc(O)cn1)C(=O)NCc1ccc2c(c1)OCO2

>  <Group label>
inactive

$$$$
>  <Compound>
CC(C)C1CC(CO)(CNc2cc(Cl)nc(N)n2)C1 (stereo unspecified)

>  <Group label>
inactive

$$$$
>  <Compound>
CCS(=O)(=O)CCn1c(=O)c2c(ncn2C)n(C)c1=O

>  <Group label>
inactive

$$$$
>  <Compound>
Clc1ccc(C(c2ccccc2Cl)C(Cl)Cl)cc1 (stereo unspecified)

>  <Group label>
inactive

$$$$
>  <Compound>
CN(Cc1cnc2nc(N)nc(N)c2n1)c1ccc(C(=O)NC(CCC(=O)O)C(=O)O)cc1C(F)(F)F (stereo unspecified)

>  <Group label>
active

$$$$
>  <Compound>
NN/C(=N\S(=O)(=O)c1ccc(-c2ccccn2)s1)Nc1ccc(Cl)cc1

>  <Group label>
inactive

$$$$
>  <Compound>
O=C(c1ccccc1)c1ccc2[nH]c(-c3c(Cl)c(Cl)c(Cl)c(Cl)c3C(=O)N/N=C\C=C\c3ccccc3)nc2c1

>  <Group label>
inactive

$$$$
>  <Compound>
C#Cc1cc(-c2nc3ccccc3s2)ccc1N

>  <Group label>
inactive

$$$$
>  <Compound>
COc1c(CC(=O)c2ccccc2)c2ccccc2n1C(C)=O

>  <Group label>
inactive

$$$$
>  <Compound>
[N-]=[N+]=NC12CC3C4CC5CC3C(C1)C(C5)C4C2

>  <Group label>
inactive

$$$$
>  <Compound>
Cc1cn2cc(-c3ccncc3)nc2s1

>  <Group label>
inactive

$$$$
